Reference for the values: the supplement of paper PMC10724198

# Test system: Saccharomyces cerevisiae
# assay.summary: protein stability index of tFT-peptide fusion in wild type (PSI (0-1 scale)); higher = more stable (slower turnover)
# conditions: genetic background: wild type
Decide using protein stability index: a value greater than or equal to 0.2 is Met, a smaller one is Not met.

Solved cases below.
In [3]: df
Out[3]:
   entry_sequence              study_system  assigned_label
0    AETLPMCPLLLR  Saccharomyces cerevisiae             Met
1    KKHKKGQKAKIN  Saccharomyces cerevisiae             Met
2    RSGRVLLPLYFR  Saccharomyces cerevisiae             Met
3    ARWRVGLWHGAS  Saccharomyces cerevisiae             Met
4    FSMRGTFRYWVN  Saccharomyces cerevisiae         Not met

Check this sequence for protein stability index at or above 0.2: LKILRQKCNHQN
Met

Let us now turn to VVVYLSCVACIN
Not met

Let us now turn to RLITPLPVQFLN
Not met

* * *

# Tested on: Saccharomyces cerevisiae
# assay.summary: protein stability index of tFT-peptide fusion (C-terminal peptide) (PSI (0-1 scale)); higher = more stable (slower turnover)
# conditions: genetic background: wild type; temperature: 30 C
measurement.label: protein stability index

Here are 10 sequences together with their reported answers.
>>> df
   entry_sequence              study_system  observed_measurement
0    FFVFPFGLLFLS  Saccharomyces cerevisiae                 0.342
1    LVPLSLLLCFFV  Saccharomyces cerevisiae                 0.306
2    PLRLLSTPSPLS  Saccharomyces cerevisiae                 0.755
3    GWVKWGVGIGRG  Saccharomyces cerevisiae                 0.734
4    FPPPPPHTPSSA  Saccharomyces cerevisiae                 0.694
5    YCVMEVAGLEWE  Saccharomyces cerevisiae                  0.69
6    RSSPAVPPSPRP  Saccharomyces cerevisiae                 0.692
7    LGGVRRRDWQEG  Saccharomyces cerevisiae                 0.677
8    LGGGAGAGYWVG  Saccharomyces cerevisiae                 0.741
9    PPALPPTGHPPF  Saccharomyces cerevisiae                 0.709

Can you share its protein stability index? I mean this sequence: LLFPPVCRPCLS
0.605

Let us now turn to VPTLCDQVFLFA
0.627

* * *

# protein stability index per record follows
# Test system: Saccharomyces cerevisiae
# assay.summary: protein stability index of tFT-peptide fusion (C-terminal peptide) (PSI (0-1 scale)); higher = more stable (slower turnover)
# conditions: genetic background: wild type; temperature: 37 C
Number, no unit, nothing else.

Can you share its protein stability index? I mean this sequence: GVSLRVFVVSVC
0.142

* * *

# Test system: Saccharomyces cerevisiae
# assay.summary: protein stability index of tFT-peptide fusion (C-terminal peptide) (PSI (0-1 scale)); higher = more stable (slower turnover)
# conditions: genetic background: wild type; temperature: 30 C
Decide using protein stability index: a value greater than or equal to 0.7 is fulfilled, a smaller one is not fulfilled.

Solved cases below.
   entry_sequence  assigned_label
0    WFKALCPIFCKD   not fulfilled
1    PPLHPPPPAFVF   not fulfilled
2    GAGLWGGRGRRW   not fulfilled

Check this sequence for protein stability index at or above 0.7: TGRLFVSLRVWY
not fulfilled

Let us now turn to HDLVRECVGPVH
not fulfilled

Let us now turn to MLLSVDWAGDEI
fulfilled

Let us now turn to GTVGTGFGGGVE
not fulfilled

Let us now turn to VSRHRRLAGMIW
fulfilled

Let us now turn to PPPPPPGHLPRL
fulfilled
